# tgt: the molecule itself
# test-details: AUC
pKd: −log10 of the molar value.
Collected pKd values appear next to each entry.
parameter: pKd

>  <protein>
AsiA I40A mutant (natural protein, bacteriophage T4, UniProt P32267 1-90, looked up) MNKNIDTVREIITVASILIKFSREDIVENRANFIAFLNEAGVTHEGRKLNQNSFRKIVSELTQEDKKTLIDEFNEGFEGVYRYLEMYTNK

>  <parameter>
pKd

>  <meas-value>
5.57

$$$$
>  <protein>
AsiA protein (wild type) (natural protein, bacteriophage T4, UniProt P32267 1-90, looked up) MNKNIDTVREIITVASILIKFSREDIVENRANFIAFLNEIGVTHEGRKLNQNSFRKIVSELTQEDKKTLIDEFNEGFEGVYRYLEMYTNK

>  <parameter>
pKd

>  <meas-value>
6.46

$$$$
>  <protein>
AsiA F21A mutant (natural protein, bacteriophage T4, UniProt P32267 1-90, looked up) MNKNIDTVREIITVASILIKASREDIVENRANFIAFLNEIGVTHEGRKLNQNSFRKIVSELTQEDKKTLIDEFNEGFEGVYRYLEMYTNK

>  <parameter>
pKd

>  <meas-value>
6.68

$$$$
>  <protein>
AsiA V14A mutant (natural protein, bacteriophage T4, UniProt P32267 1-90, looked up) MNKNIDTVREIITAASILIKFSREDIVENRANFIAFLNEIGVTHEGRKLNQNSFRKIVSELTQEDKKTLIDEFNEGFEGVYRYLEMYTNK

>  <parameter>
pKd

>  <meas-value>
5.92

$$$$
